- assay.details: Soluble peptide degradation, Cells condition (LC-MS)
- Format: in vitro ADME, human
- particulars: human, hUVECs in culture with fresh media (Cells condition); Figure 2B heatmap; pooled TAILS-derived soluble peptides in media on hUVECs (75000 per well, 48 well plate, 500 µL); 24 h; LC-MS, ratio to βFβA6 internal standard, 24 h / 0 h; N = 5; read-out: Fraction of peptide remaining at 24 hours: hUVEC Cells
Where a SMILES comes first, the peptide text is derived from it. [ ]: non-standard residue; d: D form. βAla = NCCC(=O)O
The entries below are paired with their reported remaining at 24 h.
The reply should contain only the number, in %.

CC[C@H](C)[C@H](NC(=O)CCNC(C)=O)C(=O)N[C@H](C(=O)N[C@@H](CCCCN)C(=O)N[C@H](C(=O)N[C@@H](CC(=O)O)C(=O)N[C@H](C(=O)N1CCC[C@H]1C(=O)N[C@@H](CC(=O)O)C(=O)N[C@@H](CCSC)C(=O)N[C@H](C(=O)NCCC(N)=O)C(C)C)[C@@H](C)CC)[C@@H](C)O)C(C)C [IVKTDIPDMV] (Ac-[βAla]IVKTDIPDMV[βAla]-NH2) : 106

Next compound, remaining at 24 h to be filled in.
So for CC(=O)NCCC(=O)N1CCC[C@H]1C(=O)N1CCC[C@H]1C(=O)N[C@@H](CO)C(=O)N[C@@H](CCCNC(=N)N)C(=O)N[C@@H](Cc1c[nH]cn1)C(=O)N[C@@H](CC(=O)O)C(=O)N[C@H](C(=O)NCC(=O)N[C@H](C(=O)N1CCC[C@H]1C(=O)NCCC(N)=O)[C@@H](C)O)[C@@H](C)O [PPSRHDTGTP] (Ac-[βAla]PPSRHDTGTP[βAla]-NH2) , the logged remaining at 24 h turned out to be 103

Ref: paper PMC12683216
